- Tgt: hAT1R (Homo sapiens)
- Sequence (P30556 whole entry): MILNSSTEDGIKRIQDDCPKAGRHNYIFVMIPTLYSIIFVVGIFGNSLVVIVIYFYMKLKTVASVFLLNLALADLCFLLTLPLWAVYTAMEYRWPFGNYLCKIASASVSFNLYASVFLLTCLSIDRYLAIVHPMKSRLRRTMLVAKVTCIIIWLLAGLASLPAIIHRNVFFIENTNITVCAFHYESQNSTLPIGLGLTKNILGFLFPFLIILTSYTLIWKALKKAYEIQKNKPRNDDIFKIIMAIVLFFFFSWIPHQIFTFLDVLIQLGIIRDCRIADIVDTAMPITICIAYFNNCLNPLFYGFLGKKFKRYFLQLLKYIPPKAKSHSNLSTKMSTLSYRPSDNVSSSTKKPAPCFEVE
- Procedure Details: cell-based
- Run Conditions: agonist mode
Reported BRET P63 Ymax values follow for various compounds
The reply should be a number in %, with the unit left off.

Illustrative cases are given below, each with its answer.
INSERT INTO measurements (compound, tgt, value_units, result) VALUES
  ('CCCCc1nc(Cl)c(C(=O)O)n1Cc1ccc(-c2cc(-c3ccc(C(=O)N(C)C)cc3)ccc2-c2nn[nH]n2)cc1', 'hAT1R (Homo sapiens)', '%', 11.9),
  ('CCCCc1nc(Cl)c(C(=O)O)n1Cc1ccc(-c2cc(-c3cn(C(C)C)nc3C(F)(F)F)ccc2-c2nn[nH]n2)cc1', 'hAT1R (Homo sapiens)', '%', 30.4),
  ('CCc1nc2c(C)cc(C)nc2n1Cc1ccc(-c2cc(-c3cn(CCO)nn3)ccc2-c2nnn[nH]2)cc1', 'hAT1R (Homo sapiens)', '%', 17.7),
  ('CCCCC(=O)N(Cc1ccc(-c2cc(-c3ccccn3)ccc2-c2nn[nH]n2)cc1)[C@H](C(=O)O)C(C)C', 'hAT1R (Homo sapiens)', '%', 4.5),
  ('CCc1nc2c(C)cc(C)nc2n1Cc1ccc(-c2cc(-c3ncc(C)s3)ccc2-c2nn[nH]n2)cc1', 'hAT1R (Homo sapiens)', '%', 41.7);

Prompt: Give the reported value of BRET P63 Ymax for this record: CCOc1nc2cccc(C(=O)O)c2n1Cc1ccc(-c2cc(-c3ccccc3)ccc2C(=O)O)cc1
Completion: 12.8

Prompt: Return reported BRET P63 Ymax. Input compound: CCc1nc2c(C)cc(C)nc2n1Cc1ccc(-c2cc(Oc3cc(Cl)ccn3)ccc2-c2nn[nH]n2)cc1
Completion: 6.7

Prompt: State its BRET P63 Ymax: CCc1nc2c(C)cc(C)nc2n1Cc1ccc(-c2cc(-c3ccccc3O)ccc2-c2nnn[nH]2)cn1
Completion: 19.6

Prompt: Supply reported BRET P63 Ymax belonging to this compound: CCc1nc2c(C)cc(C)nc2n1Cc1ccc(-c2cc(-c3ccccn3)ccc2-c2nn[nH]n2)cc1
Completion: 23.5

Prompt: # return recorded BRET P63 Ymax for input CCCCC1=NC2(CCOC2)C(=O)N1Cc1ccc(-c2cc(-c3ccccc3O)ccc2-c2nnn[nH]2)cc1 (single isomer, unassigned) [Example 150]
Completion: 14.6

Prompt: # return recorded BRET P63 Ymax for entry CCCC1=NC2(CCCC2)C(=O)N1Cc1ccc(-c2cc(-c3ccccc3)ccc2-c2nn[nH]n2)cc1
Completion: 11.8
